Source: PubChem BioAssay AID504803

# assayed system: Serine protease HTRA1 (Homo sapiens)
# measurement notes: inhibition of human HTRA1 peptidase – biochemical, fluorescence polarization, HTS, primary screen (AID 504803);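 further: 0% = enzyme with DMSO and 100% = wells lacking enzyme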
# condition info: recombinant HTRA1, FP-rhodamine activity-based probe, at 5.96 µM, stronger effect = higher value
The whole screen tested about 340,000 compounds, of which about 1,700 (0.5%) were called active. For the sample, actives were picked, then their nearest neighbours and some compounds at random.
Reported inhibition values for the following molecules.
experimental readout: inhibition (%)

• Cc1cc(Cl)ccc1C(=O)C1CCCN(C(=O)c2ccc3c(c2)OCO3)C1 (stereo not given) = -4.58
• CC[C@@H]1Cc2cc(O)ccc2C2=C1c1ccc(O)cc1C[C@H]2CC = 44.3
• O=C1[C@H]2[C@@H](c3ccc(C(F)(F)F)cc3)N[C@]3(CCCN(Cc4ccc(Cl)cc4)C3=O)[C@H]2C(=O)N1Cc1ccccc1 = -39.5
• Cc1noc(C)c1NC(=O)N(C)C[C@@H]1Oc2cc(Br)ccc2S(=O)(=O)N([C@@H](C)CO)C[C@H]1C = 0.21
• COc1ccc(-c2ccc3[nH]c4c(c3c2)CCN2C[C@H]3[C@H](C)ON(C)[C@H]3C[C@@H]42)cc1 = 6.55
• CCN1CCCC1CNC(=O)c1ccc2c(c1)NC(=O)/C(=C\c1ccccc1F)S2 (stereo not given) = -43.1
• C[C@@H]1CN([C@@H](C)CO)C(=O)CCCn2nncc2CO[C@H]1CN(C)C(=O)Nc1ccc(C(F)(F)F)cc1 = -1.93
• COc1cc(O)c2c(=O)c3c(O)c(O)ccc3oc2c1OC = 53.9
• C[C@H]1CN([C@@H](C)CO)C(=O)CCCn2cc(nn2)CO[C@@H]1CN(C)C(=O)Nc1ccccc1 = 2.55
• O=Nc1c(O)cc(O)c2ccccc12 = 42.4
• Cc1ccc(NC(=O)c2ccco2)cc1 = 1.31
• CCc1cccc(CC)c1N1C(=O)CC(Sc2ccccc2N)C1=O (stereo not given) = 2.44
• CCOC(=O)Cc1ncccc1C(=O)Nc1ccc(OC(F)(F)F)cc1 = -0.74
• C[C@H]1CN([C@@H](C)CO)S(=O)(=O)c2ccc(-c3cccc(F)c3)cc2O[C@@H]1CN(C)C = 0.65
• C[C@@H]1CN([C@H](C)CO)C(=O)CCCn2nncc2CO[C@@H]1CN(C)S(=O)(=O)c1cccc(C#N)c1 = 4.09
• Cc1ccc(/C=N/NC(=O)c2cc3ccccc3cc2O)o1 = 50.2
• COc1ccc(-c2cnc3c(c2)C(=O)N([C@H](C)CO)C[C@@H](C)[C@H](CN(C)Cc2ccccc2)O3)cc1 = -5.18
• O[C@H]1C[C@H](c2ccc(Cl)cc2)N(Cc2cccs2)C[C@@H]1n1cc(C2CC2)nn1 = -46
• O=C(NN=Cc1ccccc1O)NN=Cc1ccccc1O = 25.9
• CN1CCN(c2ccncc2S(=O)(=O)N2CCCC2)CC1 = 3.56

* * *

# assayed system: Serine protease HTRA1 (Homo sapiens) (UniProt Q92743)
# Sequence (Q92743 whole entry, looked up): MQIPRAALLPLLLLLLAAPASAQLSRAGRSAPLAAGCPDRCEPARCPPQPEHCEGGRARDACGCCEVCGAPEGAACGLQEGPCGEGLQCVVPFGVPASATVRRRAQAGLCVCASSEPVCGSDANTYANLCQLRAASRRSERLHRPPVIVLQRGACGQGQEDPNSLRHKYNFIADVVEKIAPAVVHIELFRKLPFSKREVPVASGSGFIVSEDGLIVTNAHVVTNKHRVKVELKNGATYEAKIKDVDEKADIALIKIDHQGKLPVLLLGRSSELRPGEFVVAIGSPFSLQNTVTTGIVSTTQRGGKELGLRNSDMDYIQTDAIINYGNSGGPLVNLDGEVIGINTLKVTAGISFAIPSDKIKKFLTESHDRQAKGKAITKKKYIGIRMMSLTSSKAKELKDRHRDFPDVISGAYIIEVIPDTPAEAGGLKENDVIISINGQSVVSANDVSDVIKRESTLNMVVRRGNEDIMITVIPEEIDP
# measurement notes: inhibition of human HTRA1 peptidase – biochemical, fluorescence polarization, HTS, primary screen (AID 504803);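 further: 0% = enzyme with DMSO and 100% = wells lacking enzyme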
# condition info: recombinant HTRA1, FP-rhodamine activity-based probe, at 5.96 µM
The campaign covered roughly 340,000 compounds. About 1,700 (0.5%) were called active. Cut-off read from the data, not from the text of the source: active = inhibition above about 36%; inactive = the rest. Only a selection was taken, and actives are over-represented in it overall.
Possible outcomes: active, inactive

- CC(=N\NC(=O)c1cc(Br)ccc1O)/C(=N/O)C(=O)Nc1ccccc1: active
- N#C/C(=C\c1ccc(O)c(O)c1)C(=O)NCc1ccccc1: active
- O=C(CSc1ccc(Cl)cc1)NC1CC1: inactive
- CCC(CO)Oc1cc(NC(=O)c2ccc(Cl)cc2)c2ncn(C(C)C)c2c1 (configuration not stated): inactive
- C[C@H]1Cn2cnc(C(=O)N[C@H](C)c3ccccc3)c2C(=O)N1: inactive
- O=C(O)c1ccc(N/N=C/c2cn(-c3ccccc3)nc2-c2cccs2)cc1: inactive
- Oc1ccc2ccccc2c1N=Nc1nccs1: active
- CC(=O)N/N=C(\C)c1ccc(Br)cc1Br: inactive
- COc1cccc(NC(=O)CN(C)C(=O)c2cc(Cl)nc3ccccc23)c1: inactive
- CCCCN1CC(C)(C)[C@H](CC(=O)Nc2ccc(Br)cc2)C1=O: inactive
- COc1ccc(-c2ccc(CN3C(CC(C)C)C(=O)N(Cc4cn(CC5CCCCC5)nn4)CCS3(=O)=O)cc2)cc1 (configuration not stated): inactive
- N#Cc1ccsc1NC(=O)CN1CCN(S(=O)(=O)c2cc(Cl)ccc2Cl)CC1: inactive
- O=C(CN1CCN(S(=O)(=O)c2cc(Cl)ccc2Cl)CC1)c1ccc(O)c(O)c1: active
- CCOC(=O)C(=Cc1ccccc1)C(=O)c1ccccc1: inactive
- CC(C)/C=N/NC(=O)c1cc(Br)ccc1O: inactive
- CCC(CO)Oc1cc(NC(=O)c2cccc3ccccc23)c2ncn(C(C)C)c2c1 (configuration not stated): inactive
- C[C@H](O)[C@@H]1C(=O)N2CCc3c([nH]c4ccccc34)[C@@H]2C[C@@H]1N(C)C(=O)Nc1ccc(F)cc1: inactive
- COc1ccc(CNC(=O)/C(C#N)=C/c2cccc(OC)c2OC)cc1: inactive
- CCOc1ccc(CCN2C(=O)c3cccnc3C2=O)cc1OCC: inactive
- CC1=C(C(=O)N2CCOCC2)CC(CC(=O)NCc2ccco2)C(=O)N1Cc1ccc(F)cc1 (configuration not stated): inactive
- CC(=O)c1ccc(N2CCN(C(=O)CCc3ccccc3)CC2)cc1: inactive
- CC(C)CCC(=O)Nc1cc(S(=O)(=O)N2CCOCC2)ccc1N1CCCC1: inactive
